- test.details: CCTE_Harrill_HTTr_CellCount_MCF7: CCTE's Cell Proliferation Assessment for the High-Throughput Transcriptomics (HTTr) Platform, Harrill Lab (AID 2284012);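 also: count of Hoechst-stained nuclei per well by high-content imaging in MCF-7 cells; cells exposed to compound for six hours; intended direction is loss of nuclei count meaning fewer cells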
Inconclusive results are not listed. Active and inactive are the calls of the source. The calls were made as follows: active = hit-call score of the fitted dose curve at least 0.9, where 1 is the maximum; inconclusive = response in the unintended direction; inactive = score below 0.9.
Possible outcomes: active, inactive

# compound, assigned.label
measured = [
    ("O=C1NS(=O)(=O)c2ccccc21", "inactive"),
    ("CNNCc1ccc(C(=O)NC(C)C)cc1", "inactive"),
    ("O=C(c1ccccc1)c1ccccc1", "inactive"),
    ("C[C@]12CC[C@@H]3c4ccc(O)cc4CC[C@H]3[C@@H]1CC[C@@H]2OC(=O)CCC1CCCC1", "inactive"),
    ("CCC(C)c1ccccc1O (configuration not stated)", "inactive"),
    ("O=c1cc(-c2ccccc2)oc2ccc3ccccc3c12", "inactive"),
    ("Cc1[nH]nc2c1N=C(c1ccccc1Cl)c1cc([N+](=O)[O-])ccc1N2", "inactive"),
    ("CCCCCCCCCCCCOS(=O)(=O)O", "inactive"),
    ("CC(C)(C)c1ccc(CCC=O)cc1", "inactive"),
    ("CC(C)c1c(C(=O)Nc2ccccc2)c(-c2ccccc2)c(-c2ccc(F)cc2)n1CC[C@@H](O)C[C@@H](O)CC(=O)O", "inactive"),
    ("Cc1cccc2c1ccc1ccccc12", "inactive"),
    ("CCC(=O)O", "inactive"),
    ("CCCCCCCCCCCC[N+](C)(C)Cc1ccccc1", "active"),
    ("CC(=O)Nc1ccc(O)cc1", "inactive"),
    ("CCCCC(CC)C(=O)O (configuration not stated)", "inactive"),
    ("CS(=O)(=O)c1ccc([C@@H](CC2CCCC2)C(=O)Nc2cnccn2)cc1Cl", "inactive"),
    ("CC(C)(C)C1CCCCC1O (configuration not stated)", "inactive"),
]

* * *

- target: human Neurokinin, NK2 Receptor, TACR2 (gene 6865) (UniProt P21452)
- Sequence (P21452 whole entry, looked up): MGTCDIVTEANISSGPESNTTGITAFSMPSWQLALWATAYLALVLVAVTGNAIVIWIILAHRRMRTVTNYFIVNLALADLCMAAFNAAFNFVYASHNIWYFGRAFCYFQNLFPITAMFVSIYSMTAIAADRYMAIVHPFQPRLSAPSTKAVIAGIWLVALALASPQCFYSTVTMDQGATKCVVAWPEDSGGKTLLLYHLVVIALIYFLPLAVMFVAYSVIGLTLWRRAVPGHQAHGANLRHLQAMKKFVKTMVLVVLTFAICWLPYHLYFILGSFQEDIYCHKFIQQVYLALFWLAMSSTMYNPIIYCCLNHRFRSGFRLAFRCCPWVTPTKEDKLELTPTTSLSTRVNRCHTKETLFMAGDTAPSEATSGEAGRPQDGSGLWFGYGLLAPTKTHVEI
- test.details: NVS_GPCR_hNK2: NovaScreen (NVS) G Protein-Coupled Receptor Assay for human Neurokinin, NK2 Receptor (AID 2283278);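 also: actives reduce bound radioligand signal relative to DMSO baseline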
- Experimental: NVS_GPCR_hNK2 is a biochemical, single-readout assay that uses extracted gene-proteins from CHO in a cell-free assay. Measurements were taken 4 hours after chemical dosing in a 96-well plate.NVS_GPCR_hNK2 is one of one assay component(s) measured or calculated from the NVS_GPCR_hNK2 assay. […] This assay endpoint, NVS_GPCR_hNK2, was analyzed in the positive analysis fitting direction relative to DMSO as the negative control and baseline of activity. […]
Inconclusive results are not listed. Active and inactive are the calls of the source. How the source made its calls: active means hit-call score of the fitted dose curve at least 0.9, where 1 is the maximum; inconclusive means response in the unintended direction; inactive means score below 0.9.
Possible outcomes: true for active, false for inactive

# smiles.entry, assigned.label
data = [
    ("O=C1OC2(c3ccccc31)c1cc(I)c(O)c(I)c1Oc1c2cc(I)c(O)c1I", "true"),
    ("CCCCc1oc2ccccc2c1C(=O)c1cc(I)c(OCCN(CC)CC)c(I)c1", "true"),
    ("O=C(CCCN1CCC(O)(c2ccc(Cl)cc2)CC1)c1ccc(F)cc1", "false"),
    ("N=C(N)c1ccc(OCCCCCOc2ccc(C(=N)N)cc2)cc1", "false"),
    ("CCCCCCCCCCCCCCCCCC[N+](C)(C)Cc1ccccc1", "true"),
]

* * *

- Read-out: CYP2C9 (gene 1559)
- test.details: LTEA_HepaRG_CYP2C9: Life Technologies and Expression Analysis (LTEA) Assay for CYP2C9 using HepaRG (AID 2283484)
- recorded.conditions: mRNA level, 48 h; actives raise or lower the signal
Active and inactive are the calls of the source. Rule for the calls: active = hit-call score of the fitted dose curve at least 0.9, where 1 is the maximum; inactive = score below 0.9.
Possible outcomes: 1.0 (active), 0.0 (inactive)

# molecule, assigned.label
records = [
    ("CCCCC(CC)C(=O)O (stereo not given)", 0.0),
    ("Cc1[nH]nc2c1N=C(c1ccccc1Cl)c1cc([N+](=O)[O-])ccc1N2", 1.0),
    ("CCCCC=O", 0.0),
    ("O=C(CCCN1CCC(O)(c2ccc(Cl)cc2)CC1)c1ccc(F)cc1", 1.0),
    ("CCC(C)c1ccccc1O (stereo not given)", 0.0),
]

* * *

- test.details: ATG_FoxO_CIS: Attagene CIS-FACTORIAL HepG2 Assay for human Forkhead box O (FoxO) (AID 2282943)
- recorded.conditions: HepG2 Attagene cis-reporter, FoxO element, mRNA; actives raise or lower the signal
Calls of active or inactive are those of the source. The calls were made as follows: active = hit-call score of the fitted dose curve at least 0.9, where 1 is the maximum; inactive = score below 0.9.
Possible outcomes: active, inactive

# compound, assigned.label
measured = [
    ("CC(=O)CC(C)C", "inactive"),
    ("CC(C)c1c(C(=O)Nc2ccccc2)c(-c2ccccc2)c(-c2ccc(F)cc2)n1CC[C@@H](O)C[C@@H](O)CC(=O)O", "inactive"),
    ("CCOCCOCC", "inactive"),
    ("CCCCCCCCCCCCOC(=O)c1cc(O)c(O)c(O)c1", "inactive"),
    ("O=C1NS(=O)(=O)c2ccccc21", "inactive"),
    ("CCCCC=O", "inactive"),
    ("CC1=CC(=O)c2ccccc2C1=O", "inactive"),
    ("CCCCCC(C)OC(=O)COc1ccc(Cl)c2cccnc12 (configuration not stated)", "inactive"),
    ("CC(=O)Nc1ccc(O)cc1", "inactive"),
    ("O=c1cc(-c2ccccc2)oc2ccc3ccccc3c12", "inactive"),
    ("NCc1cccc(CN)c1", "inactive"),
    ("Cc1ccc(S(=O)(=O)O)cc1", "inactive"),
    ("Cc1[nH]nc2c1N=C(c1ccccc1Cl)c1cc([N+](=O)[O-])ccc1N2", "inactive"),
    ("O=C(CCCN1CCC(O)(c2ccc(Cl)cc2)CC1)c1ccc(F)cc1", "active"),
    ("CCO[Si](C)(C)OCC", "inactive"),
    ("O=C(O)CCC(F)(F)C(F)(F)C(F)(F)C(F)(F)C(F)(F)C(F)(F)F", "inactive"),
    ("Cn1sccc1=O", "inactive"),
    ("FC(OC(F)(F)C(F)(F)C(F)(F)F)C(F)(F)F (configuration not stated)", "inactive"),
    ("NC(C(F)(F)F)C(F)(F)F", "inactive"),
    ("O=C(O)CCC(F)(F)C(F)(F)C(F)(F)C(F)(F)C(F)(F)F", "inactive"),
    ("O=C(c1ccccc1)c1ccccc1", "inactive"),
    ("CC1COCc2cc3c(cc21)C(C)(C)C(C)C3(C)C (configuration not stated)", "inactive"),
    ("O=C(NCc1ncc(C(F)(F)F)cc1Cl)c1c(Cl)cccc1Cl", "inactive"),
    ("CC1CCC(C(=O)O)CC1 (configuration not stated)", "inactive"),
    ("O=C(O)c1cccc(C(=O)O)n1", "inactive"),
    ("C[N+](C)(CCCNS(=O)(=O)CCC(F)(F)C(F)(F)C(F)(F)C(F)(F)C(F)(F)C(F)(F)F)CC(=O)[O-]", "inactive"),
    ("CC(C)(C)C1CCCCC1O (configuration not stated)", "inactive"),
]

* * *

- target: Estrogen receptor (Homo sapiens)
- test.details: OT_ERa_GFPERaERE_0120: Odyssey Thera (OT) 2-hour HeLa Transcription Induction Assay for Estrogen Receptor (AID 2283382)
The source made the active and inactive calls. The calls were made as follows: active = hit-call score of the fitted dose curve at least 0.9, where 1 is the maximum; inconclusive = response in the unintended direction; inactive = score below 0.9.
Possible outcomes: T (active), F (inactive)

# smiles.entry, assigned.label
rows = [
    ("CN(Cc1cnc2nc(N)nc(N)c2n1)c1ccc(C(=O)N[C@@H](CCC(=O)O)C(=O)O)cc1", "F"),
    ("CCc1ccccc1O", "F"),
    ("CCCCCCC(C)(C)C(=O)O", "F"),
    ("Cc1cc(C(=C2C=CC(=Nc3ccc(S(=O)(=O)O)cc3)C=C2)c2ccc(Nc3ccc(S(=O)(=O)O)cc3)cc2)cc(S(=O)(=O)O)c1N", "F"),
    ("CCCCc1ccc2ccccc2c1S(=O)(=O)O", "F"),
    ("NCCN", "F"),
    ("NCc1cccc(CN)c1", "F"),
    ("CCCCCCCCCCCCOC(=O)c1cc(O)c(O)c(O)c1", "T"),
    ("CN(C)CCOC(c1ccccc1)c1ccccc1", "F"),
    ("COc1cc([N+](=O)[O-])ccc1N", "F"),
]

* * *

- Read-out: Interleukin-8 (IL8), CXCL8 (gene 3576)
- test.details: BSK_hDFCGF_IL8: BioMAP Diversity Plus: hDFCGF Assay for Interleukin-8 (IL8) Biomarker Activity (AID 2283058)
- recorded.conditions: primary human foreskin fibroblasts; actives raise or lower the signal
The source made the active and inactive calls. Rule for the calls: active = hit-call score of the fitted dose curve at least 0.9, where 1 is the maximum; inactive = score below 0.9.
Possible outcomes: Yes = active, No = inactive

# compound, assigned.label
rows = [
    ("Clc1ccc(Nc2nnc(Cc3ccncc3)c3ccccc23)cc1", "No"),
    ("CN(CCO)S(=O)(=O)C(F)(F)C(F)(F)C(F)(F)C(F)(F)C(F)(F)C(F)(F)C(F)(F)C(F)(F)F", "No"),
    ("CCCCC=O", "No"),
    ("CCCCCCCCCCCCOS(=O)(=O)O", "No"),
    ("CC[N+](CC)(CC)Cc1ccccc1", "No"),
    ("C=COC(=O)C(C)(C)CCCCCC", "Yes"),
    ("C=CC(=O)OCCC(F)(F)C(F)(F)C(F)(F)C(F)(F)C(F)(F)C(F)(F)C(F)(F)C(F)(F)F", "No"),
    ("CS(=O)(=O)c1ccc([C@@H](CC2CCCC2)C(=O)Nc2cnccn2)cc1Cl", "No"),
    ("C=CC(=C)CC/C=C(\\C)CCC=C(C)C", "No"),
    ("OCC(CO)(CBr)CBr", "No"),
    ("CCCCC(CC)C(=O)OCCOCCOCCOCCOC(=O)C(CC)CCCC (stereo not drawn)", "No"),
    ("N=C(N)c1ccc(OCCCCCOc2ccc(C(=N)N)cc2)cc1", "Yes"),
    ("O=C1c2ccc(O)c(O)c2C(=O)c2c(O)ccc(O)c21", "No"),
]
